Origin of values: patent US20230355602A1

measurement.notes: in vitro
Format: cell-based
experimental.context: human
measured.quantity: IC50 at 48 h

*Q* Provide measured IC50 at 48 h value, entry: "COc1cccc(-c2cc(F)c(Nc3ncccc3C(=O)O)c(F)c2)c1"
*A* > 10 µM

----------
Tested on: A549 cells
measurement.notes: in vitro
Assay type: cell-based
experimental.context: human, 48 h
Procedure: 12k cells (A549) per well in a 96-well plate. The compounds are added on the next day. 48 hrs treatment. 3-fold serial dilution for ASLAN 003 starting from 10 μM.
pIC50: −log10 of the molar value.
measured.quantity: pIC50

*Q* Recall the reported pIC50 of "COc1cccc(-c2cc(F)c(Nc3ncccc3C(=O)O)c(F)c2)c1" when tested on A549 cells.
*A* < 5.00

----------
measurement.notes: clinical
experimental.context: human, in vivo
measured.quantity: half-life (h)
API: value field is a number in h; no unit string.

*Q* Name the recorded half-life of the item "COc1cccc(-c2cc(F)c(Nc3ncccc3C(=O)O)c(F)c2)c1" in your answer.
*A* 18
